FYI, the data here is from ChEMBL document CHEMBL4321876.

EXPERIMENTAL_TARGET: Histone acetyltransferase p300 (Homo sapiens, UniProt Q09472)
Sequence (Q09472 whole entry, the tested form may be a part): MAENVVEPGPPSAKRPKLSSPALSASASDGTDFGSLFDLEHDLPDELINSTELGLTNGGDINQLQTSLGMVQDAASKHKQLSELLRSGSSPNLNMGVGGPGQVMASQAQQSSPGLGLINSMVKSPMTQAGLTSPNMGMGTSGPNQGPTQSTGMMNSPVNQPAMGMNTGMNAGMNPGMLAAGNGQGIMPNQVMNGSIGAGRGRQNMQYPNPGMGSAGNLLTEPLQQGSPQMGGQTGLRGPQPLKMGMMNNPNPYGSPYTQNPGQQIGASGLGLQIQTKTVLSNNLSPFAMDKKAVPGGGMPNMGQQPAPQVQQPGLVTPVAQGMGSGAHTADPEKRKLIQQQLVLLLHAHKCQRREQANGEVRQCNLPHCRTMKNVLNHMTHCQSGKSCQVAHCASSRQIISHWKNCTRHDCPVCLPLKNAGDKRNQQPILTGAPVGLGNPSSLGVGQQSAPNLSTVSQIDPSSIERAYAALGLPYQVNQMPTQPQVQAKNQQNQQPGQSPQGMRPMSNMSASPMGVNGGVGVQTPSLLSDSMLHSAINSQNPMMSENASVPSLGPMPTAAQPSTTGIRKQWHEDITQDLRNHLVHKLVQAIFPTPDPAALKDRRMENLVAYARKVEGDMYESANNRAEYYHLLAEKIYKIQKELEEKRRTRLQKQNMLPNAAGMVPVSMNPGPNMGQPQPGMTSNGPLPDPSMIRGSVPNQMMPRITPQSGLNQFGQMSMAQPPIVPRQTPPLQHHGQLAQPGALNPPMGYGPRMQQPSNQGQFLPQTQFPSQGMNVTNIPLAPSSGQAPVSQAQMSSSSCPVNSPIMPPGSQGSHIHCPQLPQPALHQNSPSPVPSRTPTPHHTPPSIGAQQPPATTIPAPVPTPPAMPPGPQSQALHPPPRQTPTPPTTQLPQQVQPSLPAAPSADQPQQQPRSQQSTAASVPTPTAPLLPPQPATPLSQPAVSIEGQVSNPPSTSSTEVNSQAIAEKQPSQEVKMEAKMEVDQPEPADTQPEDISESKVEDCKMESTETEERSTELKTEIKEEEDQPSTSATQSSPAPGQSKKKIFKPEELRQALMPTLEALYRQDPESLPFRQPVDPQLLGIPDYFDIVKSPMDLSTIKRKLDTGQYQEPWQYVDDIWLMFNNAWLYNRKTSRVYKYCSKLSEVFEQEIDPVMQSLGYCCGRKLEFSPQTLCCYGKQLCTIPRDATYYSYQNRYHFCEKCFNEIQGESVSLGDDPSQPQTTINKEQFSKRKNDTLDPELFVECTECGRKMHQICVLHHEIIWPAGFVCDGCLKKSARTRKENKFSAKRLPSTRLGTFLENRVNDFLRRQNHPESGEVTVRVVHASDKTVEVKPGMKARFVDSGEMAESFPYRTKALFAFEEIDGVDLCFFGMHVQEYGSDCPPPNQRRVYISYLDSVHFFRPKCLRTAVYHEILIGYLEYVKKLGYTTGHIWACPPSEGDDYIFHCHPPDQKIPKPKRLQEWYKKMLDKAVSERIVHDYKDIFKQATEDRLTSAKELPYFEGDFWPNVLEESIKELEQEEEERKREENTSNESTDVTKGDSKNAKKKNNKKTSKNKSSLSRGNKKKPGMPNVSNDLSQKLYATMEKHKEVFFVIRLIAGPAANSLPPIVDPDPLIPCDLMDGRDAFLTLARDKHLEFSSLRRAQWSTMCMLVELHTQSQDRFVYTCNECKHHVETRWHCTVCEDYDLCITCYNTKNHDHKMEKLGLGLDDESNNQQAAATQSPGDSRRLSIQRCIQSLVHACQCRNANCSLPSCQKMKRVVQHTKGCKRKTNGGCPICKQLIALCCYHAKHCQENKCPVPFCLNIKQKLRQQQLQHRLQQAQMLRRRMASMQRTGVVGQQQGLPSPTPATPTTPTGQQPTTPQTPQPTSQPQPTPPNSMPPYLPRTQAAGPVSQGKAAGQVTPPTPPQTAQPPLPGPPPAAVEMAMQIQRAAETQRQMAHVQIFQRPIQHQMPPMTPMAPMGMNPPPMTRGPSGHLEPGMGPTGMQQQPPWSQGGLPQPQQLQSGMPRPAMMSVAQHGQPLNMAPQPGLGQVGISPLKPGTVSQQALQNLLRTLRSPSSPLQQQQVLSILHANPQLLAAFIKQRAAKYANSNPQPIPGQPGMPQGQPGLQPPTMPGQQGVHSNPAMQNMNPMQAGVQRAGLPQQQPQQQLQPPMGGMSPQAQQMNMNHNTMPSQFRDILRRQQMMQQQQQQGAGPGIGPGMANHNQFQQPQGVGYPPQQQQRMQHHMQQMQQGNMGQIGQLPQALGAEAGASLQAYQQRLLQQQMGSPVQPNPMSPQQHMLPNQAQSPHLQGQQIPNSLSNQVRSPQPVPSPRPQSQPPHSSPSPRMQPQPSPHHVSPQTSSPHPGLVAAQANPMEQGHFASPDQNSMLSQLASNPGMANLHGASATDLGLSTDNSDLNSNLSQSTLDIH
METHOD_DESCRIPTION: Inhibition of p300 (unknown origin) using histone H3 (1 to 21 residues) as substrate preincubated for 15 mins followed by substrate and [3H]acetyl-CoA addition and measured after 60 mins by scintillation counting analysis
pIC50: −log10 of the molar value.
Parameter threshold = 8. Response is YES when pIC50 meets or exceeds it, else NO.

ENTRY_SMILES | EXPERIMENTAL_TARGET | ASSIGNED_CLASS
Cn1cc(-c2cc3c(cn2)[C@]2(CC3)NC(=O)N(CC(=O)N3Cc4cc(F)ccc4OC[C@H]3C(F)(F)F)C2=O)cn1 | Histone acetyltransferase p300 (Homo sapiens, UniProt Q09472) | NO
CNC(=O)Nc1ccc2c(c1)CC[C@@]21OC(=O)N(CC(=O)N2Cc3ccccc3CC[C@H]2C2CC2)C1=O | Histone acetyltransferase p300 (Homo sapiens, UniProt Q09472) | YES
Cn1cc(-c2ccc3c(c2)CC[C@]32NC(=O)N(CC(=O)N3Cc4cc(F)ccc4OC[C@H]3C(F)(F)F)C2=O)cn1 | Histone acetyltransferase p300 (Homo sapiens, UniProt Q09472) | YES
Cn1cc(-c2ccc3c(c2)CC[C@]32NC(=O)N(CC(=O)N3Cc4cc(F)ccc4OC[C@H]3C3CC3)C2=O)cn1 | Histone acetyltransferase p300 (Homo sapiens, UniProt Q09472) | YES
CNC(=O)Nc1ccc2c(c1)CC[C@@]21OC(=O)N(CC(=O)N2Cc3ccccc3CC[C@@H]2C(F)(F)F)C1=O | Histone acetyltransferase p300 (Homo sapiens, UniProt Q09472) | NO
Cn1cc(-c2ccc3c(c2)CC[C@@]32OC(=O)N(CC(=O)N3Cc4cc(F)ccc4OC[C@H]3C3CC3)C2=O)cn1 | Histone acetyltransferase p300 (Homo sapiens, UniProt Q09472) | YES
CNC(=O)Nc1ccc2c(c1)CC[C@@]21OC(=O)N(CC(=O)N2Cc3ccccc3C[C@H]2C)C1=O | Histone acetyltransferase p300 (Homo sapiens, UniProt Q09472) | NO
CNC(=O)Nc1ccc2c(c1)CC[C@]21OC(=O)N(CC(=O)N2Cc3ccccc3CC[C@H]2C)C1=O | Histone acetyltransferase p300 (Homo sapiens, UniProt Q09472) | NO
Cn1cc(-c2ccc3c(c2)CC[C@@]32OC(=O)N(CC(=O)N3Cc4cc(F)ccc4OC[C@H]3C(F)(F)F)C2=O)cn1 | Histone acetyltransferase p300 (Homo sapiens, UniProt Q09472) | YES
CNC(=O)Nc1ccc2c(c1)CC[C@@]21OC(=O)N(CC(=O)N2Cc3ccccc3CC[C@@H]2C)C1=O | Histone acetyltransferase p300 (Homo sapiens, UniProt Q09472) | NO
CNC(=O)Nc1ccc2c(c1)CC[C@]21NC(=O)N(CC(=O)N2Cc3cc(F)ccc3OC[C@H]2C2CC2)C1=O | Histone acetyltransferase p300 (Homo sapiens, UniProt Q09472) | YES
CNC(=O)Nc1ccc2c(c1)CC[C@@]21OC(=O)N(CC(=O)N2Cc3ccccc3CC[C@H]2C(C)C)C1=O | Histone acetyltransferase p300 (Homo sapiens, UniProt Q09472) | YES
